EXPERIMENTAL_DETAILS: Rat group tissue distribution test
Format: in vivo, SD male rats
EXPERIMENTAL_PARAMETERS: male, Sprague Dawley, rat, oral; Plasma, 12 h, intragastric, SD rats, n = 3; read-out: Average drug concentration
READOUT_KIND: concentration at 12 h (nM)

(A) Nc1nc2c(c(Sc3ccc(F)cc3C(F)(F)F)n1)CCN(c1cn[nH]c(=O)c1Cl)C2
(B) O=c1[nH]ncc(N2CCc3c(nc(CO)nc3Sc3ccc(F)cc3C(F)(F)F)C2)c1Cl
Query: Of A and B , which shows the smaller concentration at 12 h value? Mark your selection by writing its label.
Response: B

###

EXPERIMENTAL_DETAILS: Rat group tissue distribution test
Type: in vivo, SD male rats
EXPERIMENTAL_PARAMETERS: male, Sprague Dawley, rat, oral; Brain, 12 h, intragastric, SD rats, n = 3; read-out: Average drug concentration
READOUT_KIND: concentration at 12 h (nM)
Write the value in nM as a bare number.

Query: Could you tell me which concentration at 12 h is on file for Nc1nc2c(c(Sc3ccc(F)cc3C(F)(F)F)n1)CCN(c1cn[nH]c(=O)c1Cl)C2 [Compound WX013] ?
Response: 86

###

EXPERIMENTAL_DETAILS: Rat group tissue distribution test
Assay type: in vivo, SD male rats
EXPERIMENTAL_PARAMETERS: male, Sprague Dawley, rat, oral; Kidney, 1 h, intragastric, SD rats, n = 3; read-out: Average drug concentration
READOUT_KIND: concentration at 1 h (nM)

(1) Nc1nc2c(c(Sc3ccc(F)cc3C(F)(F)F)n1)CCN(c1cn[nH]c(=O)c1Cl)C2
(2) O=c1[nH]ncc(N2CCc3c(nc(CO)nc3Sc3ccc(F)cc3C(F)(F)F)C2)c1Cl
Query: Which one would you say has the larger concentration at 1 h value: 1 , or 2 ? Mark your selection by writing its label.
Response: 2

###

EXPERIMENTAL_DETAILS: Rat group tissue distribution test
Type: in vivo, SD male rats
EXPERIMENTAL_PARAMETERS: male, Sprague Dawley, rat, oral; Liver, 4 h, intragastric, SD rats, n = 3; read-out: Average drug concentration
READOUT_KIND: concentration at 4 h (µM)

(1) O=c1[nH]ncc(N2CCc3c(nc(CO)nc3Sc3ccc(F)cc3C(F)(F)F)C2)c1Cl
(2) Nc1nc2c(c(Sc3ccc(F)cc3C(F)(F)F)n1)CCN(c1cn[nH]c(=O)c1Cl)C2
Query: Of 1 and 2 , which shows the smaller concentration at 4 h value? Mark your selection by writing its label.
Response: 2
(2: 3.36 µM, 1: 5.82 µM)

###

EXPERIMENTAL_DETAILS: In vivo PK studies, intravenous injection
EXPERIMENTAL_PARAMETERS: rat, plasma, 0.5 mg/kg, male SD rats, 0.5 mpk
READOUT_KIND: half-life (h)
Write the value in h as a bare number.

Query: Could you tell me which half-life is on file for "O=c1[nH]ncc(N2CCc3c(ncnc3Oc3ccc(F)cc3C(F)(F)F)C2)c1Br" ?
Response: 2.59

###

EXPERIMENTAL_DETAILS: In vivo PK studies, intravenous injection
EXPERIMENTAL_PARAMETERS: rat, plasma, 0.5 mg/kg, male SD rats, 0.5 mpk
READOUT_KIND: clearance (mL/min/kg)
Write the value in mL/min/kg as a bare number.

Query: Could you tell me which clearance is on file for O=c1[nH]ncc(N2CCc3c(ncnc3Oc3ccc(F)cc3C(F)(F)F)C2)c1Br [Compound WX009] ?
Response: 6.52

###

EXPERIMENTAL_DETAILS: In vivo PK studies, intravenous injection
EXPERIMENTAL_PARAMETERS: rat, plasma, 1 mg/kg, male SD rats, 1 mpk, read-out: Vdss
READOUT_KIND: Vd (L/kg)

Query: Could you tell me which Vd is on file for O=c1[nH]ncc(N2CCc3c(ncnc3Sc3ccc(F)cc3C(F)(F)F)C2)c1Cl [Compound WX002] ?
Response: 2.28

Query: Could you tell me which Vd is on file for CC(F)(F)c1cc(F)ccc1Oc1ncnc2c1CCN(c1cn[nH]c(=O)c1Cl)C2 [Compound WX010] ?
Response: 1.13

(a) Nc1nc2c(c(Sc3ccc(F)cc3C(F)(F)F)n1)CCN(c1cn[nH]c(=O)c1Cl)C2 [Compound WX013]
(b) O=c1[nH]ncc(N2CCc3c(nc(CO)nc3Sc3ccc(F)cc3C(F)(F)F)C2)c1Cl [Compound WX012]
Query: Of a and b , which shows the smaller Vd value? Mark your selection by writing its label.
Response: a

###

EXPERIMENTAL_DETAILS: In vivo PK studies, intravenous injection
EXPERIMENTAL_PARAMETERS: rat, plasma, 1 mg/kg, male SD rats, 1 mpk
Description: Male SD rats were used as test animals. After intravenous injection, the blood drug concentration of the compounds was determined and the pharmacokinetic behavior was evaluated. Three healthy adult male SD rats were selected. The test compounds were mixed with an appropriate amount of a vehicle of the intravenous injection group and prepared into a 0.5 or 1 mg/mL clear solution, which was filtered with a […] microporous filter membrane for later use. […]
READOUT_KIND: clearance (mL/min/kg)

(P) CC(F)(F)c1cc(F)ccc1Oc1ncnc2c1CCN(c1cn[nH]c(=O)c1Cl)C2
(Q) O=c1[nH]ncc(N2CCc3c(ncnc3Oc3ccc(F)cc3Br)C2)c1Cl
Query: Of P and Q , which shows the smaller clearance value? Mark your selection by writing its label.
Response: Q

(I) O=c1[nH]ncc(N2CCc3c(nc(CO)nc3Sc3ccc(F)cc3C(F)(F)F)C2)c1Cl
(II) Nc1nc2c(c(Sc3ccc(F)cc3C(F)(F)F)n1)CCN(c1cn[nH]c(=O)c1Cl)C2
(III) O=c1[nH]ncc(N2CCc3c(ncnc3Sc3ccc(F)cc3C(F)(F)F)C2)c1Cl
Query: hey, can you rank those compounds up there by clearance? biggest number first please Put the labels in the requested order and write them down.
Response: III, I, II
(III: 18.2 mL/min/kg, I: 10.1 mL/min/kg, II: 3.94 mL/min/kg)

###

SUBJECT_OF_TEST: hTRPC5-T478C (Homo sapiens)
Sequence (Q9UL62 1-973): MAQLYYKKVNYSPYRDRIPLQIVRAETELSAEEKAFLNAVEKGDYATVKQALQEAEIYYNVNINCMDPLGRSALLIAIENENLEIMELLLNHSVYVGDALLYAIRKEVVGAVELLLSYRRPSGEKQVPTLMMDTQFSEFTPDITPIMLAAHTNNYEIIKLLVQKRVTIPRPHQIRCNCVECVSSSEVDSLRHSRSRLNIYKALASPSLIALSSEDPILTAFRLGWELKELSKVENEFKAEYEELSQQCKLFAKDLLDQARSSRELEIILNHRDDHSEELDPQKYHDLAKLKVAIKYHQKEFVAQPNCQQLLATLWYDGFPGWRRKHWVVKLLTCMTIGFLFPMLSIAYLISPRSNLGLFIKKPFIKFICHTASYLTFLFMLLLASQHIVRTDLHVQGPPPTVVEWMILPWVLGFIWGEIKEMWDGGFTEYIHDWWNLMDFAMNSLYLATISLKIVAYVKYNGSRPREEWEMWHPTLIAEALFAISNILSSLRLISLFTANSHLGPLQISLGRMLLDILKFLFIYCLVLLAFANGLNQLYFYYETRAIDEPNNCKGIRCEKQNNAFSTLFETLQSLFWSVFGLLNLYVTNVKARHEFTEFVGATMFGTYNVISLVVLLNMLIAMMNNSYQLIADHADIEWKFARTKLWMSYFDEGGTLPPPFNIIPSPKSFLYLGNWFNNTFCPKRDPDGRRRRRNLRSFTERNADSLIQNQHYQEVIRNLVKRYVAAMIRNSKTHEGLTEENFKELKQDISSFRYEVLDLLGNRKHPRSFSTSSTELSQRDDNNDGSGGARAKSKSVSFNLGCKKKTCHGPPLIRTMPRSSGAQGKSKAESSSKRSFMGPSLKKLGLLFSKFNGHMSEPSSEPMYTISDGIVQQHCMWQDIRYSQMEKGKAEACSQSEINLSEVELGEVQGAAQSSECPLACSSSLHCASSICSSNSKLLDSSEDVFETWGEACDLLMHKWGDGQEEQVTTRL
EXPERIMENTAL_DETAILS: hTRPC5-T478C FLIPR calcium flux IC50 assay
Format: cell-based
EXPERIMENTAL_PARAMETERS: hTRPC5-T478C-HEK cells, Englerin A as channel agonist
READOUT_KIND: IC50 (nM)

Example cases with answers are listed next.
Query: Could you tell me which IC50 is on file for "O=c1[nH]ncc(N2CCc3c(ncnc3Oc3ccc(F)cc3C(F)(F)F)C2)c1Br" ?
Response: 37

Query: Could you tell me which IC50 is on file for "COCc1nc2c(c(Oc3ccc(F)cc3C(F)(F)F)n1)CCN(c1cn[nH]c(=O)c1Cl)C2" ?
Response: 80

Query: Could you tell me which IC50 is on file for "O=c1[nH]ncc(N2CCc3c(ncnc3Oc3ccc(F)cc3Br)C2)c1Cl" ?
Response: 40

Query: Could you tell me which IC50 is on file for "CC(F)(F)c1cc(F)ccc1Oc1ncnc2c1CCN(c1cn[nH]c(=O)c1Cl)C2" ?
Response: 71

Query: Could you tell me which IC50 is on file for "Nc1nc2c(c(Sc3ccc(F)cc3C(F)(F)F)n1)CCN(c1cn[nH]c(=O)c1Cl)C2" ?
Response: 55.7

Query: Could you tell me which IC50 is on file for "C=C(c1ccc(F)cc1C(F)(F)F)c1ncnc2c1CCN(c1cn[nH]c(=O)c1Cl)C2" ?
Response: 70

Query: Could you tell me which IC50 is on file for "O=c1[nH]ncc(N2CCc3c(ncnc3Sc3ccc(F)cc3Cl)C2)c1Cl" ?
Response: 56

Query: Could you tell me which IC50 is on file for "O=c1[nH]ncc(N2CCc3c(ncnc3Sc3ccc(F)cc3C(F)(F)F)C2)c1Cl" ?
Response: 27

(I) CC(O)c1nc2c(c(Sc3ccc(F)cc3C(F)(F)F)n1)CCN(c1cn[nH]c(=O)c1Cl)C2 (stereo not shown)
(II) O=c1[nH]ncc(N2CCc3c(nc(CO)nc3Sc3ccc(F)cc3C(F)(F)F)C2)c1Cl
Query: Of I and II , which shows the smaller IC50 value? Mark your selection by writing its label.
Response: I
